assay: DUSP6 inhibitors restoring Erk phosphorylation by chemical complementation, primary imaging in DUSP6-transfected HeLa (AID 609); settings: HeLa MKP-3 transfected, phospho-Erk imaging KS statistic; measured here: cell density z-score; at 10 µM; cells stimulated with TPA for 15 min
Provide the reported z-score of each item.
Provide a numeric answer; units are not to be included.

Record request: z-score value, item CCSC(SCC)[C@H](O)[C@@H](O)[C@H](O)[C@H](O)CO -0.857

Further, for Cc1cc(N2C(=O)C(=O)/C(=C(/O)c3ccccc3)C2c2cccc(Br)c2)no1 (centres undefined) ? 0.294

Cool, now COc1ccc(-c2ncncc2-c2csc(C)n2)c(O)c1 0.355

Also check Cc1nn(-c2ccccc2)c2c1C(c1ccc(F)cc1F)C(C#N)=C(N)O2 (centres undefined) 0.29

* * *

experiment: inhibitors of TNFa-induced NFkB p65 translocation, primary screen, imaging, HUVEC, MLSMR starter and 10KST1 sets (AID 438); details: HUVEC TNFa-induced p65 nuclear translocation; at 2 µM, stronger effect = higher value, 0% TNFa-plus-vehicle, 100% no-TNFa wells;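 further: compound added about 3h40 before a 20 min TNFalpha stimulation; signal is the nuclear over cytoplasmic p65 intensity ratio per well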
The source made the active and inactive calls.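 The calls were made as follows: active = inhibition above 20% together with a positive visual image hit; inconclusive = visual image hit but inhibition not above 20%; inactive = no visual image hit.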
measured_attribute: inhibition

For the compound shown here, N#CC1=C(N)NC(SCc2ccc(F)cc2)=C(C#N)C12CCCCC2 , give the reported inhibition. -15.5% (inactive)

And for COc1cccc(/C(O)=C2/C(=O)C(=O)N(CCN(C)C)C2c2ccc(Br)cc2)c1 (stereo not drawn) ? 18.1% (inactive)

Please answer likewise for CC/C(C)=C1\SC(N2CCN(C(C)=O)CC2)=NC1=O -8.5% (inactive)

# repeat for CCSc1nnc(N(CCC#N)CCC#N)s1 -4.7% (inactive)

Field entry: COc1ccc(-c2nn3c(COc4ccccc4)nnc3s2)cc1OC -0.7% (inactive)

Continue with N#CCCSCc1ccc(OCC(=O)O)cc1 -22.2% (inactive)

Lookup COCCNC(=O)c1c(N)n(CCC2=CCCCC2)c2nc3ccccc3nc12 -11.4% (inactive)

What about this compound? CCCCCC(=O)N1CC2(CC)CN(C(=O)CCCCC)CC(CC)(C1)C2=O 4.4% (inactive)

Would you kindly repeat that for Cc1ccc(S(=O)(=O)N2CCN(c3nc(C(C)C)c4c(c3C#N)CC(C)(C)OC4)CC2)cc1 ? -7.5% (inactive)

Repeat for the following compound: Clc1cccc(-c2nn3c(COc4ccccc4)nnc3s2)c1 -2.3% (inactive)

Would you kindly repeat that for Cc1nc2c(c(=O)n1CC1CCCO1)c1nc3ccccc3nc1n2CC(C)C (stereo not drawn) ? -4.3% (inactive)

Query CCOC(=O)CC(=O)CSc1nc(N)c(C#N)c(-c2ccc(Cl)cc2)c1C#N next -9.9% (inactive)

Try this compound too: CC12CCC(C(=O)N(CCC#N)CCC#N)(CC1=O)C2(C)C (stereo not drawn) 21.3% (inactive)

* * *

experiment: inhibitors of mutant huntingtin aggregation, primary screen, imaging, exon1htt(103Q)mCFP cells, high-content imaging (AID 483); conditions: exon1htt(103Q)mCFP cell line, aggregate imaging, at 2 µM; measured here: cell count, toxicity;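 further: compound exposure lasted 3 days before fixation; percent of the per-plate median nuclei count of sample wells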
Would you mind telling me the reported nuclei count of each entry?
Your answer should be a plain number; it is taken to be in %.

Fill in: nuclei count of Cc1cc(N2C(=O)C(=O)/C(=C(/O)c3ccc(F)cc3)C2c2ccc(F)cc2)no1 (configuration not stated) is ___ 60.9

Repeat for the following compound: CN1CCN(c2nc3c(c(=O)n(C)c(=O)n3C)n2Cc2cccc3ccccc23)CC1 109

Now the compound CCCCOc1ccc(C(=O)Nc2ccc(N3CCN(C(C)=O)CC3)cc2)cc1 104

Also need Cc1cn([C@H]2C[C@H](N=[N+]=[N-])[C@@H](CO)O2)c(=O)[nH]c1=O , thanks. 102

// same read-out, input: CN(C)c1ccc(O)c2c1CC1CC3[C@@H](N(C)C)C(=O)C(C(N)=O)=C(O)[C@]3(O)C(=O)C1=C2O (some centres not stated) 103

Query COC(=O)Nc1nc2ccc(Sc3ccccc3)cc2[nH]1 next 103

What do we get for CC(C)CNC(=O)c1c(N)n(/N=C/c2ccccn2)c2nc3ccccc3nc12 ? 105

Next compound: CO[C@@]1(NC(=O)CSCC#N)C(=O)N2C(C(=O)O)=C(CSc3nnnn3C)CS[C@@H]21 103

What about this compound? CC(=O)NCCCCCCNC(C)=O 101

// repeat for CSc1ccccc1NC(=O)c1c(Br)cnn1C and report 58.2

Request: Clc1ccc(Cl)c(-c2ccc(/C=N/c3ncn[nH]3)o2)c1 104

Check OC(CCN1CCCCC1)(c1ccccc1)c1ccccc1 too. 108

Try this compound too: Fc1ccc(-c2cnc[nH]2)cc1 64.4

Repeat with Cn1c([N+](=O)[O-])cnc1COC(N)=O 97.8

Query CCC[C@@H]1C[C@@H](C(=O)N[C@H]([C@@H](C)O)[C@H]2O[C@H](SC)[C@H](O)[C@@H](O)C2O)N(C)C1 (some centres not stated) next 101

Field entry: Cc1ccc2[nH]c3c(N4CCOCC4)ncnc3c2c1 82.9

Next compound: C[C@]12CCC(=O)C=C1CC[C@@H]1[C@@H]2C(=O)C[C@@]2(C)[C@H]1CC[C@]2(O)C(=O)CO 102

Entry to check: CC(C)Sc1nc(N2CCCC2)c2c(c1C#N)CC(C)(C)OC2 73.8

Subsequent entry: Nc1nc(F)nc2c1ncn2[C@@H]1O[C@H](CO)[C@@H](O)[C@@H]1O 103

Now this one: COc1ccc(/C=C/C(=O)Nc2ccccc2C(=O)O)cc1OC 103

Do the same for O=C(O)CCN(CCC(=O)O)c1nnc(SCc2ccccc2)s1 please 108

Now consider COc1ccc(CCN2CCC(Nc3nc4ccccc4n3Cc3ccc(F)cc3)CC2)cc1 and answer again. 83.3
